System: MDA-MB-231
Assay: Growth inhibition of human MDA-MB-231 cells at 10 uM after 48 hrs by SRB assay
Type: functional
Settings: MDA-MB-231, 48 h, read-out: GI
quantity.name: inhibition of growth at 10 µM (%)

- smiles.notation: "O=c1[nH]cc(F)c(=O)[nH]1"
  target.or.system: "MDA-MB-231"
  result.units: "%"
  prefix.operator: "="
  experimental.value: 78.1
- smiles.notation: "O=c1c2cccc3c(N4CCCC4)ccc(c32)c2nc3ccccc3n12"
  target.or.system: "MDA-MB-231"
  result.units: "%"
  prefix.operator: "="
  experimental.value: 22.9
- smiles.notation: "O=c1c2cccc3c(Nc4ccc(F)cc4)ccc(c32)c2nc3ccccc3n12"
  target.or.system: "MDA-MB-231"
  result.units: "%"
  prefix.operator: "="
  experimental.value: 29.1
- smiles.notation: "O=c1c2cccc3c(Nc4ccc(Br)cn4)ccc(c32)c2nc3ccccc3n12"
  target.or.system: "MDA-MB-231"
  result.units: "%"
  prefix.operator: "="
  experimental.value: 33.8
- smiles.notation: "O=c1c2cccc3c(NCCO)ccc(c32)c2nc3ccccc3n12"
  target.or.system: "MDA-MB-231"
  result.units: "%"
  prefix.operator: "<"
  experimental.value: 20
- smiles.notation: "Nc1ccc(Sc2ccc3c4c2cccc4c(=O)n2c4ccccc4nc32)cc1"
  target.or.system: "MDA-MB-231"
  result.units: "%"
  prefix.operator: "="
  experimental.value: 45.6
- smiles.notation: "O=c1c2cccc3c(NC4CCCCC4)ccc(c32)c2nc3ccccc3n12"
  target.or.system: "MDA-MB-231"
  result.units: "%"
  prefix.operator: "<"
  experimental.value: 20
- smiles.notation: "O=c1c2cccc3c(N4CCOCC4)ccc(c32)c2nc3ccccc3n12"
  target.or.system: "MDA-MB-231"
  result.units: "%"
  prefix.operator: "<"
  experimental.value: 20
- smiles.notation: "CCCCNc1ccc2c3c1cccc3c(=O)n1c3ccccc3nc21"
  target.or.system: "MDA-MB-231"
  result.units: "%"
  prefix.operator: "="
  experimental.value: 20.2
- smiles.notation: "O=c1c2cccc3c(Nc4c(F)cccc4F)ccc(c32)c2nc3ccccc3n12"
  target.or.system: "MDA-MB-231"
  result.units: "%"
  prefix.operator: "<"
  experimental.value: 20
- smiles.notation: "O=c1c2cccc3c(Nc4ccccn4)ccc(c32)c2nc3ccccc3n12"
  target.or.system: "MDA-MB-231"
  result.units: "%"
  prefix.operator: "="
  experimental.value: 29.4
